The measurements presented in this section are drawn from PubChem BioAssay (NCATS).

- measurementProtocol: Viability qHTS for spleen associated tyrosine kinase inhibitor (SYKi) naive MV4-11 cells (AID 1963823); also: nearly all actives have a fitted effect of over 40% in size
- testParameters: MV4-11 AML viability, CellTiter-Glo luminescence, 72 h; series mostly up to 45 µM
Inconclusive results are not listed. Calls of active or inactive are those of the source. Calls follow the shape of the dose curve; as a rule, active = well fitted cell-killing curve with a large enough effect; inconclusive = small, poorly fitted or top-dose-only effect, or effect the other way; inactive = no such curve, though single readings can be large or run the other way.
Answer with one of the outcomes active, inactive

Before answering, review these 6 worked examples.
molecule: C[C@@H]1CC[C@]2(C(=O)O[C@@H]3O[C@H](CO)[C@@H](O)[C@H](O)[C@H]3O)CC[C@]3(C)C(=CCC4[C@@]5(C)C[C@@H](O)[C@H](O)C(C)(C)C5CC[C@]43C)C2[C@]1(C)O (stereo not given in full)
assignedLabel: inactive
--
molecule: CN1CCN2c3ncccc3Cc3ccccc3C2C1 (stereo not given)
assignedLabel: inactive
--
molecule: CC(=O)Nc1ccc(CC(=O)O)cc1
assignedLabel: inactive
--
molecule: CN1N=C(C(N)=O)CCC1=O
assignedLabel: inactive
--
molecule: CN1C(=O)CC(c2ccccc2)C1=O (stereo not given)
assignedLabel: inactive
--
molecule: CCc1cc(CC[C@]2(C3CCCC3)CC(O)=C(Cc3nc4nc(C)cc(C)n4n3)C(=O)O2)cc(CC)n1
assignedLabel: active

Q: Which outcome was assigned to COC(=O)c1cc(Br)cnc1N1CCC(NC2CCCCC2)C(O)C1 (stereo not given) in this test?
A: inactive

Q: Which outcome was assigned to CC1CCC(C(=O)N(c2cc(C#CC(C)(C)C)sc2C(=O)O)C2CCC(O)CC2)CC1 (stereo not given) in this test?
A: active

Q: Which outcome was assigned to CC1(C)CC2C=C(C(=O)O)C3COC(=O)C(O)(CO)C23C1 (stereo not given) in this test?
A: inactive

Q: Which outcome was assigned to `Nc1ncnc(Nc2ccc(OCc3ccccc3)c(Cl)c2)c1/C=N/OCCN1CCOCC1` in this test?
A: active
